system: Amine oxidase [flavin-containing] B (Homo sapiens, UniProt P27338)
Sequence (P27338 whole entry): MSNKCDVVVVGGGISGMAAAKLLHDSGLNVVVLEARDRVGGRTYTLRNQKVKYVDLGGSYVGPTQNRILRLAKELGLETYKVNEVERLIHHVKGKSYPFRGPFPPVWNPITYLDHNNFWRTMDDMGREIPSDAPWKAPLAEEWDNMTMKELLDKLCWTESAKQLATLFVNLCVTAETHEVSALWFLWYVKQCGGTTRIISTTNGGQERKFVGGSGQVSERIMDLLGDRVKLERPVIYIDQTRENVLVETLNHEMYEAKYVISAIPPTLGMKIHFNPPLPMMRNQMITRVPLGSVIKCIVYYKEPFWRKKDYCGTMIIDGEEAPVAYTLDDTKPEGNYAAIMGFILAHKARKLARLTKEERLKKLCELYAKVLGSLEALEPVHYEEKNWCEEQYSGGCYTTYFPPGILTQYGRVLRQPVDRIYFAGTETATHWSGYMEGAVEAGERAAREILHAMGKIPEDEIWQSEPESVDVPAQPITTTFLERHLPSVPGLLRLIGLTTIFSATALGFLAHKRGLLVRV
assayOverview: Inhibition of human MAOB
pKi: −log10 of the molar value.
attributeMeasured: pKi

(I) Cn1c(=O)c2c(nc(OCc3ccc(Br)cc3)n2C)n(C)c1=O
(II) C#CCN(C)c1nc2nc(CCC3CCN(Cc4ccccc4)CC3)ccc2c(-c2ccccc2)c1C#N
Could you point out whether the larger pKi belongs to I or to II ? Response format: the label of the selected entry. II
(II: 7.49, I: 7.21)
